# tested.target: MIF (Homo sapiens, UniProt P14174)
# Sequence (P14174 2-115 limits assumed): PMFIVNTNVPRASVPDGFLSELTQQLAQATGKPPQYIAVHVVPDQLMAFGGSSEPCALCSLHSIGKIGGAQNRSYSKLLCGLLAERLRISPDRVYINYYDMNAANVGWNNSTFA
# test.method.notes: MIF tautomerase assay using pHPP as substrate
# Assay type: biochemical
# conditions: inhibition of the MIF enzyme in vitro; mean of multiple test results; read-out: Tautomerase Inhibition pIC50 (converted)
molecules and their reported IC50

# molecule, IC50
data = [
    ("Nc1ccc(N2CCN(c3nc(N)c4ncn(-c5ccncc5)c4n3)CC2)nc1 [Example 190]", "> 10 µM"),
]

Lookup result for O=C(O)Cn1cnc2c(-n3ncc4ccc(C(=O)O)cc43)nc(N3CCN(c4ccc(O)cc4)CC3)nc21 [Example 104] ; measured IC50: 1 to 9.77 µM

So for Nc1nc(N2CCN(c3ccc(O)cc3)CC2)nc2c1ncn2-c1cccc(F)c1 [Example 72] , the logged IC50 turned out to be 1 to 9.77 µM

Memo: Cn1cc(-n2cnc3c(N)nc(N4CCN(c5ccc(O)cc5)CC4)nc32)cn1 [Example 88] , reported IC50: 1 to 9.77 µM

The recorded IC50 for Cc1nc(N2CCN(c3ccc(O)cc3)CC2)nc2c1ncn2-c1cc(N2CCN(c3ccc(O)cc3)CC2)cnn1 [Example 64] is 1 to 9.77 µM
